- System: ATP;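 further: ATP exposure 15 min at 22 °C before imaging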
- protocol-text: switch fluorescence ratio, 500 uM ATP over buffer (Cy3 cluster intensity, sum of 5 cycles each) (fold (ratio)); higher = stronger signal-on switching upon ATP binding; sequences stand for … in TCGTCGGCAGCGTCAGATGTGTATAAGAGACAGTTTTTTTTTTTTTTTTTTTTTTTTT…TC
- condition-set: aptamer strand: ATP DNA aptamer (quencher-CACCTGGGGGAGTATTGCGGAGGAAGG + anchor), 100 nM annealed; ATP concentration: 500 uM
measure: switch fluorescence ratio
Answers are plain numbers.

input-sequence: CGTGTTAGGG
target-of-assay: ATP;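 further: ATP exposure 15 min at 22 °C before imaging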
switch fluorescence ratio: 1.01

input-sequence: ACCAAGGGAG
target-of-assay: ATP;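 further: ATP exposure 15 min at 22 °C before imaging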
switch fluorescence ratio: 1.04

input-sequence: TTGGCGAGGA
target-of-assay: ATP;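 further: ATP exposure 15 min at 22 °C before imaging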
switch fluorescence ratio: 1

input-sequence: GTGTTGAGAA
target-of-assay: ATP;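 further: ATP exposure 15 min at 22 °C before imaging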
switch fluorescence ratio: 0.98

input-sequence: TTATAATAGG
target-of-assay: ATP;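 further: ATP exposure 15 min at 22 °C before imaging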
switch fluorescence ratio: 1.02

input-sequence: GCCTGTGGGA
target-of-assay: ATP;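 further: ATP exposure 15 min at 22 °C before imaging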
switch fluorescence ratio: 1.01

# return switch fluorescence ratio for each item in the list
1. ATTTTTGTAG
2. TGGAGCGGGA
3. TGGTCCCGGA
4. GGGGTCTGAG
5. GGTGTGAATT
6. CGATGGGATT
7. GTAAGAGTTC
8. GGGGACGACC

[1.01, 1, 1, 0.989, 1.02, 1.06, 1.02, 1.03]

Hello, I would appreciate it if you could give switch fluorescence ratio for each entry below.
1. GGGATGGGGG
2. GAAATGTGTT
3. AAAGGTGCCT
4. GGCATTAGGT
5. TTTCGGTGCT
6. ATGAATATGC
7. GACAGGGATC
8. TACCAGGGAT

[1, 1, 1.05, 0.977, 1.03, 1.04, 2.1, 1.1]

* * *

- System: ATP;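 further: ATP exposure 15 min at 22 °C before imaging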
- protocol-text: switch fluorescence ratio, 500 uM ATP over buffer (Cy3 cluster intensity, sum of 5 cycles each) (fold (ratio)); higher = stronger signal-on switching upon ATP binding; sequences stand for … in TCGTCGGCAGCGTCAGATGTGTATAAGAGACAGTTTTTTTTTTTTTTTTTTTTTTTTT…TC
- condition-set: aptamer strand: ATP DNA aptamer (quencher-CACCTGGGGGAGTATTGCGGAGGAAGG + anchor), 100 nM annealed; ATP concentration: 500 uM
measure: switch fluorescence ratio
Answers are plain numbers.

Worked examples, 5 sequences total:
input-sequence: TCATCCGTTT
data-value: 1.13
--
input-sequence: GATTCCTATC
data-value: 0.996
--
input-sequence: TTGTGCGGGT
data-value: 1.02
--
input-sequence: AAAGTTTACA
data-value: 1.03
--
input-sequence: TTGGGAAGGC
data-value: 0.972

For every record below, what is its switch fluorescence ratio?
1. TGTCGTGTTT
2. GACCATCTGT
3. AATAGAATTT
4. GACGAAATTG
5. TATTTAGGTT

1: 0.968; 2: 1.02; 3: 0.997; 4: 0.998; 5: 1.01

Would you kindly share the measured switch fluorescence ratio for "AAATGTGAAT" ?
1

* * *

- Tested on: ATP;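 further: ATP exposure 15 min at 22 °C before imaging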
- protocol-text: switch fluorescence ratio, 500 uM ATP over buffer (Cy3 cluster intensity, sum of 5 cycles each) (fold (ratio)); higher = stronger signal-on switching upon ATP binding; sequences stand for … in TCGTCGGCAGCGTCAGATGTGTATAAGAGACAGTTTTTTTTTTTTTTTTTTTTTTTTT…TC
- condition-set: aptamer strand: ATP DNA aptamer (quencher-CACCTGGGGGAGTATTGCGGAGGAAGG + anchor), 100 nM annealed; ATP concentration: 500 uM
measure: switch fluorescence ratio
Give bare numbers.

input-sequence: TCATTTGGAT
switch fluorescence ratio: 1
--
input-sequence: TTTTGGTATA
switch fluorescence ratio: 1.05
--
input-sequence: ACGTTTGTCC
switch fluorescence ratio: 1.03

Give switch fluorescence ratio for each of the items listed below.
1. TTAAATTTT
2. GGGCTTCGTT
3. GCCTTGATCT
4. TAAAGGAAGT
5. TTGACGATGA
6. AAACTGGGAT

1: 1.01; 2: 0.993; 3: 0.996; 4: 0.983; 5: 1.04; 6: 1.01
